System: hla-lacZ fusion
Assay: β-galactosidase chemiluminescent reporter assay of the chromosomal hla-lacZ fusion (hla expression)
Type: cell-based, S. aureus Wood 46-3
Conditions: subinhibitory concentrations of antibiotics
measuredEndpoint: influence on hla expression (in words)

Worked examples, 4 compounds total:
{"structureSmiles": "COc1cc(Cc2cnc(N)nc2N)cc(OC)c1OC", "resultValue": "weak stimulatary effect"}
{"structureSmiles": "Cc1onc(-c2ccccc2)c1C(=O)N[C@@H]1C(=O)N2[C@@H]1SC(C)(C)[C@@H]2C(=O)O", "resultValue": "dramatically increased"}
{"structureSmiles": "COc1cccc(OC)c1C(=O)N[C@@H]1C(=O)N2[C@@H]1SC(C)(C)[C@@H]2C(=O)O", "resultValue": "dramatically increased"}
{"structureSmiles": "C[C@@H]1O[C@@H]1P(=O)(O)O", "resultValue": "weak stimulatary effect"}

Proceed to the following item.
Per the records, this compound ( `CN[C@H](CC(C)C)C(=O)N[C@H]1C(=O)N[C@@H](CC(N)=O)C(=O)N[C@H]2C(=O)N[C@H]3C(=O)N[C@H](C(=O)N[C@H](C(=O)O)c4cc(O)cc(O)c4-c4cc3ccc4O)[C@H](O)c3ccc(c(Cl)c3)Oc3cc2cc(c3O[C@@H]2O[C@H](CO)[C@@H](O)[C@H](O)[C@H]2O[C@H]2C[C@](C)(N)[C@H](O)[C@H](C)O2)Oc2ccc(cc2Cl)[C@H]1O` ) has influence on hla expression (in words) equal to weak stimulatary effect
